Each entry below carries its reported Fluorescence Index (HLA-A*0201 stabilization), 25 µM peptide.
- System: T1, HLA-A*0201 (human)
- T1 construct: also called HLA-A2.1; HLA-A2
- Experimental protocol: T2 cell HLA-A*0201 stabilization, flow cytometry with mAb BB7.2
# print the numeric value only

Below are worked cases with known answers.
Binder: KTWGQYWAV (synthetic; alanine at position 8) [gp100 154-162 epitope-analogue KTWGQYWAV]
Number: 1.35

Binder: KTAGQYWQV (synthetic; alanine at position 3) [gp100 154-162 epitope-analogue KTAGQYWQV]
Number: 1.02

Binder: KTWGQYAQV (synthetic; alanine at position 7) [gp100 154-162 epitope-analogue KTWGQYAQV]
Number: 1.14

Binder: ATWGQYWQV (synthetic; alanine at position 1) [gp100 154-162 epitope-analogue ATWGQYWQV]
Number: 1.42

Binder: KTWGQAWQV (synthetic; alanine at position 6) [gp100 154-162 epitope-analogue KTWGQAWQV]
Number: 1.15

Prompt line: I would be grateful if you could share the reported Fluorescence Index (HLA-A*0201 stabilization), 25 µM peptide for KTWGQYWQA (synthetic; alanine at position 9) [gp100 154-162 epitope-analogue KTWGQYWQA] .
Response line: 1.02

Prompt line: And the next one, KTWGAYWQV (synthetic; alanine at position 5) [gp100 154-162 epitope-analogue KTWGAYWQV] ?
Response line: 1.25

Prompt line: And the next one, KAWGQYWQV (synthetic; alanine at position 2) [gp100 154-162 epitope-analogue KAWGQYWQV] ?
Response line: 1.2
